Measured values drawn from PubChem BioAssay (NCATS) for this set.

experiment summary: qHTS for Inhibitors of ATXN expression: Validation (AID 588378); also: % is scaled to controls: 0 for no effect and ±100 for the full control effect; nearly all actives have a fitted effect of over 75% in size
applied conditions: cell-based ATXN2 expression reporter assay, luminescence; series mostly up to 57.1 µM
Records with an inconclusive call do not appear. The source made the active and inactive calls. Calls follow the shape of the dose curve; as a rule, active = well fitted inhibition curve with a large enough effect; inconclusive = small, poorly fitted or top-dose-only effect; inactive = no such curve, though single readings can be large or run the other way.
property name: outcome

>>> reported("CC(C)C(=O)c1c(C(C)C)nn2ccccc12")
"inactive"
>>> reported("NC1CCN(c2cccc(Cl)n2)CC1")
"inactive"
>>> reported("C[C@]12C[C@H](O)[C@H]3[C@@H](CCC4=CC(=O)CC[C@@]43C)[C@@H]1CC[C@@H]2C(=O)CO")
"inactive"
>>> reported("CNC(=O)Oc1ccc2c(c1)[C@]1(C)CCN(C)[C@@H]1N2C")
"inactive"
>>> reported("C#CCN(C)Cc1ccccc1")
"inactive"
>>> reported("CNCC(O)c1ccc(O)c(O)c1 (stereo unspecified)")
"inactive"

---

System: N140
experiment summary: qHTS profiling for inhibitors of Plasmodium falciparum proliferation (AID 504749); also: nearly all actives have a fitted effect of over 60% in size
applied conditions: P. falciparum in erythrocytes, SYBR Green DNA, 72 h; series mostly up to 28.7 µM
Inconclusive results are not listed. Activity calls are given as the source filed them. Calls follow the shape of the dose curve; as a rule, active = well fitted inhibition curve with a large enough effect; inconclusive = small, poorly fitted or top-dose-only effect; inactive = flat fitted curve, though single readings scatter.
Outcome codes: active, inactive

>>> label("O=C(Oc1ccccc1C(=O)O)c1ccccc1O")
"inactive"
>>> label("CC(CN1c2ccccc2Sc2ccccc21)N(C)C (stereo not drawn)")
"active"
>>> label("NS(=O)(=O)c1cc2c(cc1Cl)NC(CSCc1ccccc1)=NS2(=O)=O")
"inactive"
>>> label("CCC(=O)Nc1ccc(O)cc1")
"inactive"
>>> label("CC1=C(/C=C/C(C)=C/C=C/C(C)=C/C(=O)O)C(C)(C)CCC1")
"inactive"
>>> label("O=C(O)c1ccccc1-c1ccc(C(F)(F)F)cc1")
"inactive"
>>> label("Cc1cccc(Nc2cc(Cl)nc(SCC(=O)O)n2)c1C")
"inactive"
>>> label("O=Cc1ccccc1C=O")
"inactive"
>>> label("CCOC(CN1CCN(CC(C)C(=O)c2ccccc2)CC1)c1ccccc1 (stereo not drawn)")
"inactive"
>>> label("CC(=O)Nc1ccc(/C=N/NC(N)=S)cc1")
"inactive"
>>> label("O=C1NS(=O)(=O)c2ccccc21")
"inactive"
>>> label("NC(=O)NC(=O)Cc1ccccc1")
"inactive"
>>> label("Cc1ccc2nc(N)[nH]c(=O)c2c1Sc1ccncc1")
"active"

---

Tested on: KB-3-1
experiment summary: Cytotoxic Profiling of Annotated Libraries Using Quantitative High-Throughput Screening (AID 1296008); also: % is scaled to controls: 0 for no effect and ±100 for the full control effect; nearly all actives have a fitted effect of over 60% in size
applied conditions: Five cell lines viability, CellTiter-Glo ATP luminescence, 48-72 h; hits give low values
Records with an inconclusive call do not appear.
Listed below: max response values for each entry.
property name: max response (%)

>>> reported("O=C1N=C(O)CN1/N=C/c1ccc(-c2ccc([N+](=O)[O-])cc2)o1")
4.36
>>> reported("CC1(C)OC(=O)NC1=O")
1.34
>>> reported("CN1CCC[C@@H]1Cc1c[nH]c2ccc(CCS(=O)(=O)c3ccccc3)cc12")
-5.28
>>> reported("O=C1c2c(O)cccc2Cc2cccc(O)c21")
-0.793
>>> reported("C=Cc1c(C)c2cc3[nH]c(cc4nc(cc5nc(cc1[nH]2)C(C)=C5CCC(=O)O)C(CCC(=O)O)=C4C)c(C)c3C=C")
-3.43
>>> reported("CCC(=O)Nc1ccc(O)cc1")
18.3
>>> reported("CSc1ccc2c(c1)N(CCC1CCCCN1C)c1ccccc1S2 (stereo not given)")
-7.5
>>> reported("CC1=C(CC(=O)O)c2cc(F)ccc2/C1=C\\c1ccc(S(C)(=O)=O)cc1")
-9.19
>>> reported("Cc1ncc([N+](=O)[O-])n1CC(O)CCl (stereo not given)")
18
>>> reported("O=C(O)CN1C(=O)c2cccc3cccc(c23)C1=O")
-7.36

---

experiment summary: qHTS of pediatric cancer cell lines to identify multiple opportunities for drug repurposing: Primary screen for SK-N-MC cells (AID 1347093)
applied conditions: SK-N-MC viability, CellTiter-Glo luminescence, 48 h; series mostly up to 46 µM
Inconclusive results are not listed. Activity calls are given as the source filed them. The call rests on the fitted dose curve; in most records, active means well fitted cell-killing curve with a large enough effect; inconclusive means small, poorly fitted or top-dose-only effect; inactive means no such curve, though single readings can be large or run the other way.
Outcome codes: active, inactive

>>> label("NC1CCN(c2cccc(Cl)n2)CC1")
"inactive"
>>> label("Oc1ccc(C(O)CNCCCCCCNCC(O)c2ccc(O)c(O)c2)cc1O (stereo not drawn)")
"inactive"
>>> label("CC[N+](CC)(CC)CCOc1ccc(/C=C/c2ccccc2)cc1")
"active"
>>> label("C[C@H]1O[C@H](O[C@H]2[C@H](O)[C@@H](O)[C@@H](O[C@H]3[C@H](O)[C@@H](O)[C@H](O)O[C@@H]3CO)O[C@@H]2CO)[C@H](O)[C@@H](O)[C@@H]1N[C@H]1C=C(CO)[C@@H](O)[C@H](O)[C@H]1O")
"inactive"
>>> label("C[C@@H]1C[C@H]2[C@@H]3C[C@H](F)C4=CC(=O)C=C[C@]4(C)[C@@]3(F)[C@@H](O)C[C@]2(C)[C@@]1(O)C(=O)CO")
"inactive"
>>> label("C[C@]12CC[C@@H]3c4ccc(O)cc4CC[C@H]3[C@@H]1CCC2=O")
"inactive"
>>> label("CC[C@H]1CN2CCc3cc(OC)c(OC)cc3[C@@H]2C[C@@H]1C[C@H]1NCCc2cc(OC)c(OC)cc21")
"active"
>>> label("CC1(C)Oc2ccc(C#N)cc2[C@@H](N2CCCC2=O)[C@@H]1O")
"inactive"
>>> label("O=c1cc(CO)occ1O")
"inactive"
>>> label("COc1ccc2[nH]c(S(=O)Cc3ncc(C)c(OC)c3C)nc2n1 (stereo not drawn)")
"inactive"
>>> label("CCOC(=O)c1ccc(O)cc1")
"inactive"
>>> label("CC1=C(CC(=O)O)c2cc(F)ccc2/C1=C\\c1ccc(S(C)(=O)=O)cc1")
"inactive"
>>> label("COc1cc2[nH]c(=O)[nH]c(=O)c2cc1OC")
"inactive"
>>> label("CC(O)CN(CCN(CC(C)O)CC(C)O)CC(C)O (stereo not drawn)")
"inactive"
>>> label("COc1ccccc1O")
"inactive"
>>> label("NS(=O)(=O)c1cc2c(cc1Cl)NC(CSCc1ccccc1)=NS2(=O)=O")
"inactive"
>>> label("Oc1cccc(O)c1")
"inactive"
>>> label("CN(C)CCOC(C)(c1ccccc1)c1ccccn1 (stereo not drawn)")
"inactive"
>>> label("CCCCC(CC)COC(=O)c1ccccc1O (stereo not drawn)")
"inactive"
>>> label("O=c1cc[nH]c(=O)[nH]1")
"inactive"
>>> label("CN(C)CC[C@@H](c1ccc(Cl)cc1)c1ccccn1")
"inactive"
>>> label("Nc1cc(=O)[nH]c(N)n1")
"inactive"
>>> label("Nc1ccc(S(=O)(=O)Nc2nccs2)cc1")
"inactive"

---

Test system: KB-3-1
experiment summary: Cytotoxic Profiling of Annotated Libraries Using Quantitative High-Throughput Screening (AID 1296008); also: % is scaled to controls: 0 for no effect and ±100 for the full control effect; nearly all actives have a fitted effect of over 60% in size
applied conditions: Five cell lines viability, CellTiter-Glo ATP luminescence, 48-72 h; hits give low values
Inconclusive results are not listed.
Listed below: max response values for each entry.
property name: max response (%)

>>> reported("CCCCC(CC)COC(=O)c1ccccc1O (stereo not given)")
-6.97
>>> reported("CSc1ccc2c(c1)C(N1CCN(C)CC1)Cc1ccccc1S2 (stereo not given)")
0.66
>>> reported("O=C(O)COc1nn(Cc2ccccc2)c2ccccc12")
-3.25
>>> reported("Cc1ccc(C(C)C)cc2c(C)ccc1-2")
-19.4
>>> reported("N[C@H](C(=O)O)c1ccc(O)cc1")
2.74
>>> reported("Cc1cccc(C)c1NC(=O)CN(CC(=O)O)CC(=O)O")
2.9
>>> reported("O=c1cc[nH]c(=S)[nH]1")
-6.83
>>> reported("NC1CCN(c2cccc(Cl)n2)CC1")
2
>>> reported("CC(C)C(=O)c1c(C(C)C)nn2ccccc12")
-2.88
>>> reported("CC1(C)[C@@H]2CC[C@@]1(C)C(=O)C2")
-13.1
>>> reported("COc1ccc(Cl)cc1C(=O)NCCc1ccc(S(=O)(=O)NC(=O)NC2CCCCC2)cc1")
-9.53
>>> reported("CC(=O)CCC(=O)O")
2.58
>>> reported("COCCOC(=O)C1=C(C)NC(C)=C(C(=O)OC/C=C/c2ccccc2)C1c1cccc([N+](=O)[O-])c1 (stereo not given)")
22.9
>>> reported("O=S(=O)(O)NC1CCCCC1")
-17.7
>>> reported("[O-][n+]1cccc(CO)c1")
4.61
>>> reported("CN(C)CC[C@@H](c1ccc(Cl)cc1)c1ccccn1")
-22.8
>>> reported("Oc1ccc(C(O)CNCCCCCCNCC(O)c2ccc(O)c(O)c2)cc1O (stereo not given)")
1.48
>>> reported("CCN(CC)CCCC(C)Nc1c2ccc(Cl)cc2nc2ccc(OC)cc12 (stereo not given)")
-7.27
>>> reported("CCCCN1CCCC[C@H]1C(=O)Nc1c(C)cccc1C")
2.43
>>> reported("OCc1cc(C(O)CNCCCCCCOCCCCc2ccccc2)ccc1O (stereo not given)")
-19.3
>>> reported("COC(=O)[C@H]1[C@H]2C[C@@H]3c4[nH]c5cc(OC)ccc5c4CCN3C[C@H]2C[C@@H](OC(=O)COc2ccc(OC)cc2)[C@@H]1OC")
0.718
>>> reported("O=C(O)CC(O)C(=O)O (stereo not given)")
15.7
>>> reported("OCC(CO)N[C@H]1C[C@](O)(CO)[C@@H](O)[C@H](O)[C@H]1O")
-14.4
>>> reported("CC12CCC(CC1)C(C)(C)O2")
-7.48
>>> reported("OCCN1CCN(CCCN2c3ccccc3Sc3ccc(Cl)cc32)CC1")
-16
